meta.source: ChEMBL document CHEMBL1147450

Would you kindly list Accumulation for each of these compounds?
target_of_assay: Extracellular calcium-sensing receptor (Rattus norvegicus) (UniProt P48442)
assay_method_text: Maximal stimulation of [3H]-inositol phosphates production in CHO cells expressing rat Calcium sensing receptor (CaSR) at 10 mM [Ca2+]
Type: functional, cell-based
One number for each entry, in %.

INPUT: Would you please give the reported Accumulation of CC(NCc1cc2cc(F)ccc2[nH]1)c1cccc2ccccc12 (stereo unspecified) with Extracellular calcium-sensing receptor (Rattus norvegicus) (UniProt P48442)?
OUTPUT: 87

INPUT: Would you please give the reported Accumulation of C[C@H](NCc1cc2ccccc2[nH]1)c1cccc2ccccc12 with Extracellular calcium-sensing receptor (Rattus norvegicus) (UniProt P48442)?
OUTPUT: 32

# map each compound to its Accumulation
1. CC(NCc1cc2ccccc2n1C)c1cccc2ccccc12 (stereo unspecified)
2. COc1ccc2[nH]c(CNC(C)c3cccc4ccccc34)cc2c1 (stereo unspecified)
3. COc1ccc(CNC(CNC(C)c2cccc3ccccc23)Cc2ccccc2)cc1OC (stereo unspecified)
4. CC(NCc1cc2ccccc2[nH]1)c1cccc2ccccc12 (racemic)
5. CC(NCC(Cc1ccccc1)NCc1ccc(F)cc1)c1cccc2ccccc12 (stereo unspecified)
6. COc1cc2cc(CNC(C)c3cccc4ccccc34)[nH]c2cc1OC (stereo unspecified)

OUTPUT:
1: 79; 2: 55; 3: 74; 4: 103; 5: 95; 6: 34

# map each compound to its Accumulation
1. COc1ccc(S(=O)(=O)n2c(CNC(C)c3cccc4ccccc34)cc3ccccc32)cc1OC (stereo unspecified)
2. CC(NCc1cc2cc(Cl)ccc2[nH]1)c1cccc2ccccc12 (stereo unspecified)
3. COc1ccc(CNC(CNC(C)c2cccc3ccccc23)Cc2ccccc2)cc1 (stereo unspecified)

OUTPUT:
1: 54; 2: 60; 3: 80

---

target_of_assay: Extracellular calcium-sensing receptor (Rattus norvegicus, UniProt P48442)
assay_method_text: Ability to stimulate [3H]inositol phosphates accumulation in CHO cells expressing rat Calcium sensing receptor (CaSR) at 2 mM [Ca2+]
measurement_name: pEC50
Answers are plain numbers, as −log10 of the molar value.

INPUT: Given CC(NCc1cc2ccccc2[nH]1)c1cccc2ccccc12 (racemic) , respond with its pEC50.
OUTPUT: 5.89

More entries:
INPUT: Given C[C@@H](NCc1cc2ccccc2[nH]1)c1cccc2ccccc12 , respond with its pEC50.
OUTPUT: 6.00

---

target_of_assay: Extracellular calcium-sensing receptor (Rattus norvegicus) (UniProt P48442)
Sequence (whole entry): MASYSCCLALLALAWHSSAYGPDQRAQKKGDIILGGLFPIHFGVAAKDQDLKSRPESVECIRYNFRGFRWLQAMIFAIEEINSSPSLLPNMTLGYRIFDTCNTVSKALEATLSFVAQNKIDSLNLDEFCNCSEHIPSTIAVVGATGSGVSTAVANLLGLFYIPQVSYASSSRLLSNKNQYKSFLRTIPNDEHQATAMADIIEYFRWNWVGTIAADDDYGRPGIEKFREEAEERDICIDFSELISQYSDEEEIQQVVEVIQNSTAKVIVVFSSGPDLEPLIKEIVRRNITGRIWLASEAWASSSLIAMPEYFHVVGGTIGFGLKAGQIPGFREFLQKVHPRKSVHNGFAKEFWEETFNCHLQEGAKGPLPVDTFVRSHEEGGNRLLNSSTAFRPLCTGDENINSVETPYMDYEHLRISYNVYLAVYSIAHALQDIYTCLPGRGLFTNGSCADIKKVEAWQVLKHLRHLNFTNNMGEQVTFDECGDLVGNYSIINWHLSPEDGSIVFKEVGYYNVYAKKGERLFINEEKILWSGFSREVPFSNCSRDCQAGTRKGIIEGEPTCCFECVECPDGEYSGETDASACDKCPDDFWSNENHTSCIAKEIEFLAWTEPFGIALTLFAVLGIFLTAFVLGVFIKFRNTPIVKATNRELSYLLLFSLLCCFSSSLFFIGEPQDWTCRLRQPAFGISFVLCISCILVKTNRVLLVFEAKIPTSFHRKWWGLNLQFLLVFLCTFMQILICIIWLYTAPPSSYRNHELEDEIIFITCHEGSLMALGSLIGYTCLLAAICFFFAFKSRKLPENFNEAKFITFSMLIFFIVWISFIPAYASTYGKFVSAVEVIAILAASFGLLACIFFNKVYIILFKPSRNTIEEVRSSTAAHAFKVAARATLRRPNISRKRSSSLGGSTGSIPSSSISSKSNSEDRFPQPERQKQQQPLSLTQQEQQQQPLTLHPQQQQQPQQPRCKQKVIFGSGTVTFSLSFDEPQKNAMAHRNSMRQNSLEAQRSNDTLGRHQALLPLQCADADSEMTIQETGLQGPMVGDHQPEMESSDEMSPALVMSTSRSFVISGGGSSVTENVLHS
assay_method_text: Maximal stimulation of [3H]-inositol phosphates production in CHO cells expressing rat Calcium sensing receptor (CaSR) at 10 mM [Ca2+]
Type: functional, cell-based
Would you kindly list Accumulation for each of these compounds?
Give bare numbers, in %.

# map each compound to its Accumulation
1. CC(NCC(Cc1ccccc1)NCc1ccccc1Cl)c1cccc2ccccc12 (stereo not given)
2. CC(NCC(Cc1ccccc1)NCc1ccccc1)c1cccc2ccccc12 (stereo not given)
3. CC(NCC(Cc1ccccc1)NCc1cccc(Cl)c1)c1cccc2ccccc12 (stereo not given)
4. C[C@@H](NCc1cc2ccccc2[nH]1)c1cccc2ccccc12
5. CC(NC(=O)c1cc2ccccc2[nH]1)c1cccc2ccccc12 (stereo not given)

OUTPUT:
1: 98; 2: 80; 3: 78; 4: 117; 5: 2
